# experimental target: human FXR (NR1H4) (Homo sapiens, UniProt Q96RI1)
# Sequence (Q96RI1 whole entry, the tested form may be a part): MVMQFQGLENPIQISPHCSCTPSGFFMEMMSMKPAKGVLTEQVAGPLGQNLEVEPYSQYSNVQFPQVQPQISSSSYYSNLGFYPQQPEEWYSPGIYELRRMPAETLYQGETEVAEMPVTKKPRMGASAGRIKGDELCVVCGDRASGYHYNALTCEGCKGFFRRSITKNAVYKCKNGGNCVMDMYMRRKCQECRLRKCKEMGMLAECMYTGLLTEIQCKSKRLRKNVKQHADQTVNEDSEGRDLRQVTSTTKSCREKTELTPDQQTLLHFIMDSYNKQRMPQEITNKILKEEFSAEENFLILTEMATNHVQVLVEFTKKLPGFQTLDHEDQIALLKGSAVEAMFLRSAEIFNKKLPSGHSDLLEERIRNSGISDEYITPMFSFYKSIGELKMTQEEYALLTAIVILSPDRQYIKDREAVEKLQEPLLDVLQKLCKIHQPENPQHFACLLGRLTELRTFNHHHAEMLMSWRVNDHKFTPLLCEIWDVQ
# assay info: Human FXR (NR1H4) Assay: Gal4 promoter driven luciferase reporter transactivation in CHO cells (Indigo Bioscience kit IB00601)
# condition parameters: Human FXR (NR1H4) reporter assay, potency ranges
pEC50: −log10 of the molar value.
Each entry below lists one item and its recorded pEC50 value.
property measured: pEC50

>>> test_result("O=C(O)c1cc2sc(N3C4CCC3CC(NCc3c(-c5c(Cl)cccc5Cl)noc3C3CC3)C4)nc2cc1F (stereo not drawn) [Example 200-16]")
"7.00 to 9.00"
>>> test_result("CC(C)Oc1cc(C(=O)NS(=O)(=O)C2(C)CC2)cc2sc(N3CCC(NCc4c(-c5ccccc5OC(F)(F)F)noc4C4CC4)CC3)nc12 [Example 900-6]")
"7.00 to 9.00"
>>> test_result("O=C(NS(=O)(=O)c1nccs1)c1ccc2nc(N3C4CCC3CC(NCc3c(-c5c(Cl)cccc5Cl)noc3C3CC3)C4)sc2c1 (stereo not drawn) [Example 268]")
"6.00 to 7.00"
>>> test_result("COC(=O)c1cc(OC(C)C)c2nc(N3C4CCC3CC(NCc3c(-c5c(Cl)cccc5Cl)noc3C3CC3)C4)sc2c1 (stereo not drawn) [Example 200-13]")
"> 9.00"
>>> test_result("CN(Cc1c(-c2c(Cl)cccc2Cl)noc1C1CC1)[C@H]1C[C@H]2CC[C@@H](C1)N2c1nc2ccc(C(=O)NS(=O)(=O)C3(C)CC3)cc2s1 [Example 293]")
"7.00 to 9.00"
>>> test_result("O=C(NS(=O)(=O)C1CC1)c1ccc2nc(N3C4CCC3CC(NCc3c(-c5ccccc5OC(F)(F)F)noc3C3CC3)C4)ccc2c1 (stereo not drawn) [Example 900-15]")
"7.00 to 9.00"
